Tested on: soybean
Assay: Test C pre-/postemergence test
Assay type: in vivo, Glycine max
Conditions: preemergence, 250 g ai/ha; scale 0 (no effect) to 100 (complete control)
Simple rule here: Soybean plant response rating less than 80 is 1, otherwise 0.

QUERY: Determine if Cn1nc(C(F)(F)F)c(CS(=O)(=O)c2ccc(Cl)c[n+]2[O-])c1OCC(F)(F)F shows Soybean plant response rating strictly lower than 80.
RESULT: 1

QUERY: Determine if Cn1nc(C(F)(F)F)c(C[S+]([O-])c2ccc(F)c[n+]2[O-])c1OCC(F)(F)F (centres unmarked) shows Soybean plant response rating strictly lower than 80.
RESULT: 0

QUERY: Determine if CC(C)c1cc[n+]([O-])c([S+]([O-])Cc2c(C(F)(F)F)nn(C)c2OC(F)F)c1 (centres unmarked) shows Soybean plant response rating strictly lower than 80.
RESULT: 0

QUERY: Determine if C#CCOc1c(CS(=O)(=O)c2cccc[n+]2[O-])c(C(F)(F)F)nn1C shows Soybean plant response rating strictly lower than 80.
RESULT: 1

QUERY: Determine if CCc1cc[n+]([O-])c([S+]([O-])Cc2c(C(F)(F)F)nn(C)c2OCC(F)(F)F)c1 (centres unmarked) shows Soybean plant response rating strictly lower than 80.
RESULT: 0

QUERY: Determine if Cn1nc(C(F)(F)F)c(C[S+]([O-])c2ccc(F)c[n+]2[O-])c1Cl (centres unmarked) shows Soybean plant response rating strictly lower than 80.
RESULT: 1

QUERY: Determine if CCc1cc[n+]([O-])c([S+]([O-])Cc2c(C(F)(F)F)nn(C)c2OC(F)F)c1 (centres unmarked) shows Soybean plant response rating strictly lower than 80.
RESULT: 0

QUERY: Determine if Cn1nc(C(F)(F)F)c(C(Cl)S(=O)(=O)c2cccc[n+]2[O-])c1OCC(F)(F)F (racemic) shows Soybean plant response rating strictly lower than 80.
RESULT: 1
